System: CYP1A2, 2B6, 2C8, 2C9, 2C19, 2D6 and 3A
TEST DETAILS: CYP inhibition in human liver microsomes, all 7 isoforms together
Type: in vitro ADME
MEASUREMENT PARAMETERS: human, at 100 μM, all the CYP isoforms tested, read-out: percent inhibition
QUANTITY: inhibition at 100 µM

Annotate the compound N[C@]1(C(=O)O)[C@H]2[C@@H](C[C@@H]1F)[C@@H]2C(=O)O [MGS0008] with its measured inhibition at 100 µM.
< 50%

----------
TEST DETAILS: Pharmacokinetics of MGS0008 in monkeys (intravenous or oral)
Format: in vivo, cynomolgus monkey
MEASUREMENT PARAMETERS: cynomolgus monkey; fed male monkeys; MGS0008 oral 1 mg/kg; plasma
QUANTITY: Cmax
Could you write the number and then its unit?

// Input: N[C@]1(C(=O)O)[C@H]2[C@@H](C[C@@H]1F)[C@@H]2C(=O)O . Output its Cmax only.
20.5 ng/mL

----------
TEST SYSTEM: CYP2C8 (Homo sapiens)
Construct: using probe substrates for each CYP isoform and human liver microsomes; from tissue; host or cells: human liver microsomes
Sequence (P10632 whole entry, canonical isoform): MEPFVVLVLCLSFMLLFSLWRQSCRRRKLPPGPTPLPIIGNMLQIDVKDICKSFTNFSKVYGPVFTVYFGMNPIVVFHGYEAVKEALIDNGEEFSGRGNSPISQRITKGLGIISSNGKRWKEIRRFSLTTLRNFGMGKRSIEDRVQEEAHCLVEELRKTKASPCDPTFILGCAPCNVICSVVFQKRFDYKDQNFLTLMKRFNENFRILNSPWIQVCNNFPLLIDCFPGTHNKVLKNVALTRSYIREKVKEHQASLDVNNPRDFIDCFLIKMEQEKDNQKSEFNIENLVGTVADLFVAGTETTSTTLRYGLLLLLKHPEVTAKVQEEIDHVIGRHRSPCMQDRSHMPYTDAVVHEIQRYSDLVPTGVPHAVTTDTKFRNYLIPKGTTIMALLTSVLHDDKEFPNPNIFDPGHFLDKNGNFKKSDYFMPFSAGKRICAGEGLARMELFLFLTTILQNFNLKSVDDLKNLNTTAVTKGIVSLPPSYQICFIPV
TEST DETAILS: CYP inhibition in human liver microsomes, CYP2C8
Assay type: in vitro ADME
MEASUREMENT PARAMETERS: human liver microsomes 0.1 mg/mL; probe Amodiaquine, metabolite N-desethylamodiaquine
pIC50: −log10 of the molar value.
Catalogue of compounds with associated pIC50

compound="CC(C)[C@@H]1CC[C@@H](C)C[C@H]1OC(=O)O[C@@H](C)OC(=O)[C@H]1[C@@H]2C[C@H](F)[C@@](N)(C(=O)O)[C@@H]21.O=S(=O)(O)c1ccccc1 [MGS0274 besylate]" result="< 5.00"

Please find the next compound below.
Kindly indicate its recorded pIC50. Item: N[C@]1(C(=O)O)[C@H]2[C@@H](C[C@@H]1F)[C@@H]2C(=O)O
< 4.00

----------
TEST DETAILS: Pharmacokinetics of MGS0008 in rats (intravenous or oral)
Type: in vivo, rat
MEASUREMENT PARAMETERS: Wistar, rat, plasma, other: intravenous or oral; fasted male rats; MGS0008 intravenous or oral 3 mg/kg; below lower limit of quantification
QUANTITY: concentration at 24 h

Tell me its concentration at 24 h given N[C@]1(C(=O)O)[C@H]2[C@@H](C[C@@H]1F)[C@@H]2C(=O)O as the entry.
< 3 ng/mL

----------
TEST SYSTEM: CYP2C9 (Homo sapiens, UniProt P11712)
Construct: using probe substrates for each CYP isoform and human liver microsomes
Sequence (P11712 whole entry, canonical isoform): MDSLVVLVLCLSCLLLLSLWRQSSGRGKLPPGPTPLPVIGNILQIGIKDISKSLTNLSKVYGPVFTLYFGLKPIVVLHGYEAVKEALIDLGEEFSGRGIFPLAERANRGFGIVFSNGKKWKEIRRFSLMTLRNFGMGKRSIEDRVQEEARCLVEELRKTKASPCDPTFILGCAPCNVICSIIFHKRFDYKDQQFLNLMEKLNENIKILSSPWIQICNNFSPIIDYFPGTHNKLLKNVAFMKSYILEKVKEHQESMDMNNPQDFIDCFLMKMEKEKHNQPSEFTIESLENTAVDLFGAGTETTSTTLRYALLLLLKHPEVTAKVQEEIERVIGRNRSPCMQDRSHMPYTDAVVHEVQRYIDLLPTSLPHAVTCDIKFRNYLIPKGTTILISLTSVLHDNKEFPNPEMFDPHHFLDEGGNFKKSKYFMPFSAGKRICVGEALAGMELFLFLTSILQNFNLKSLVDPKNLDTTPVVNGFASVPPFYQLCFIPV
TEST DETAILS: CYP inhibition in human liver microsomes, CYP2C9
MEASUREMENT PARAMETERS: human liver microsomes 0.1 mg/mL; probe Diclofenac, metabolite 4'-Hydroxydiclofenac
The following compounds are listed with their measured IC50 values.

compound="CC(C)[C@@H]1CC[C@@H](C)C[C@H]1OC(=O)O[C@@H](C)OC(=O)[C@H]1[C@@H]2C[C@H](F)[C@@](N)(C(=O)O)[C@@H]21.O=S(=O)(O)c1ccccc1 [MGS0274 besylate]" quantity=IC50 result="> 10 µM"

Shift focus to the following entry.
Tell me IC50 reported for N[C@]1(C(=O)O)[C@H]2[C@@H](C[C@@H]1F)[C@@H]2C(=O)O [MGS0008]
> 100 µM

----------
TEST DETAILS: Plasma protein binding in human plasma
Format: in vitro ADME
MEASUREMENT PARAMETERS: pH 7.4, 0.1, 1, and 10 μg/mL as MGS0274, equilibrium dialysis 5 h, 37°C
QUANTITY: fraction unbound at 5 h

Give the reported value of fraction unbound at 5 h for this record: CC1CCC(C(C)C)C(OC(=O)OC(C)OC(=O)C2C3CC(F)C(N)(C(=O)O)C32)C1 (stereo not shown)
0.039 to 0.043

----------
TEST DETAILS: Pharmacokinetics of MGS0008 in monkeys (intravenous or oral)
Type: in vivo, cynomolgus monkey
MEASUREMENT PARAMETERS: cynomolgus monkey; fed male monkeys; MGS0008 oral 1 mg/kg; plasma; read-out: AUC0–24h
QUANTITY: AUC(0-t) (ng·h/mL)
// units = ng·h/mL; emit number, no label

Input N[C@]1(C(=O)O)[C@H]2[C@@H](C[C@@H]1F)[C@@H]2C(=O)O , output reported AUC(0-t).
281

----------
TEST DETAILS: Pharmacokinetics of MGS0008 in rats (intravenous or oral)
Assay type: in vivo, rat
MEASUREMENT PARAMETERS: Wistar, rat, plasma; fasted male rats; MGS0008 intravenous 3 mg/kg; mean ± SD (n = 3); read-out: CLtotal (converted)
QUANTITY: clearance (mL/min/kg)
Field format: number, assumed mL/min/kg, no unit text.

Return value of clearance for input N[C@]1(C(=O)O)[C@H]2[C@@H](C[C@@H]1F)[C@@H]2C(=O)O , no commentary.
9.13

----------
TEST DETAILS: Pharmacokinetics of MGS0008 in monkeys (intravenous or oral)
Type: in vivo, cynomolgus monkey
MEASUREMENT PARAMETERS: cynomolgus monkey; fed male monkeys; MGS0008 oral 1 mg/kg; plasma
QUANTITY: Tmax (h)
Expressed in h, but write only the number.

Please indicate Tmax recorded for N[C@]1(C(=O)O)[C@H]2[C@@H](C[C@@H]1F)[C@@H]2C(=O)O
9

----------
TEST DETAILS: Plasma and CSF distribution of MGS0008 in rats
Format: in vivo
MEASUREMENT PARAMETERS: Wistar, rat, CSF; fasted male rats; MGS0008 oral 3 mg/kg; 4 h; read-out: CSF concentration
QUANTITY: concentration at 4 h
Number first, unit second: that is the form wanted.

Give recorded concentration at 4 h. N[C@]1(C(=O)O)[C@H]2[C@@H](C[C@@H]1F)[C@@H]2C(=O)O [MGS0008]
7.88 ng/mL

----------
TEST DETAILS: Pharmacokinetics of MGS0008 in rats (intravenous or oral)
Type: in vivo, rat
MEASUREMENT PARAMETERS: Wistar, rat; fasted male rats; MGS0008 oral 3 mg/kg; plasma
Method: The pharmacokinetic profiles of MGS0008 and MGS0274 were investigated in fasted male Wistar rats (n = 3) and fed male cynomolgus monkeys (n = 4). Monkeys had been given 60 g of a primate diet (PS‐A; Oriental Yeast, Tokyo, Japan) one hour before administration. […] The plasma concentration‐time profiles of MGS0008 and MGS0274 were analyzed using a non‐compartmental analysis method with pharmacokinetic analysis software Phoenix® WinNonlin® 6.2 or later (Certara, Princeton, NJ).
QUANTITY: Cmax (ng/mL)
Supply the numeric figure in ng/mL, leaving out any unit text.

Identify Cmax associated with the molecule N[C@]1(C(=O)O)[C@H]2[C@@H](C[C@@H]1F)[C@@H]2C(=O)O
1990

----------
TEST DETAILS: Pharmacokinetics of MGS0008 in monkeys (intravenous or oral)
Assay type: in vivo, cynomolgus monkey
MEASUREMENT PARAMETERS: cynomolgus monkey; fed male monkeys; MGS0008 intravenous 1 mg/kg; plasma
QUANTITY: half-life
Form entry: enter the amount, then its unit.

Give half-life for the following compound: N[C@]1(C(=O)O)[C@H]2[C@@H](C[C@@H]1F)[C@@H]2C(=O)O
1.48 h

----------
TEST DETAILS: Pharmacokinetics of MGS0008 in monkeys (intravenous or oral)
Format: in vivo, cynomolgus monkey
MEASUREMENT PARAMETERS: cynomolgus monkey, urine and plasma; fed male monkeys; MGS0008 intravenous 1 mg/kg
QUANTITY: CL renal (mL/min/kg)
Give the quantity in mL/min/kg, number only.

Please report the measured CL renal for N[C@]1(C(=O)O)[C@H]2[C@@H](C[C@@H]1F)[C@@H]2C(=O)O
2.07

----------
TEST DETAILS: Pharmacokinetics of MGS0008 in rats (intravenous or oral)
Format: in vivo, rat
MEASUREMENT PARAMETERS: Wistar, rat, plasma; fasted male rats; MGS0008 intravenous 3 mg/kg; mean ± SD (n = 3); read-out: Vdss
QUANTITY: Vd (L/kg)
Field: numeric (L/kg). Do not append units.

Return Vd (reported value) for this compound: N[C@]1(C(=O)O)[C@H]2[C@@H](C[C@@H]1F)[C@@H]2C(=O)O
0.545

----------
TEST DETAILS: Plasma and CSF distribution of MGS0008 in rats
Format: in vivo
MEASUREMENT PARAMETERS: Wistar, rat, CSF; fasted male rats; MGS0008 oral 3 mg/kg; 6 h; read-out: CSF concentration
QUANTITY: concentration at 6 h (ng/mL)
Note: unit ng/mL is implicit; provide only the numeric part.

Using known records, supply concentration at 6 h for N[C@]1(C(=O)O)[C@H]2[C@@H](C[C@@H]1F)[C@@H]2C(=O)O
4.84

----------
TEST DETAILS: Pharmacokinetics of MGS0008 in rats (intravenous or oral)
Type: in vivo, rat
MEASUREMENT PARAMETERS: Wistar, rat; fasted male rats; MGS0008 intravenous 3 mg/kg; plasma
QUANTITY: half-life (h)
Numeric only. Scale: h

Supply half-life value. Item: N[C@]1(C(=O)O)[C@H]2[C@@H](C[C@@H]1F)[C@@H]2C(=O)O
1.54
